target: Vitamin D3 receptor (Homo sapiens); assay: qHTS assay to identify small molecule antagonists of the vitamin D receptor (VDR) signaling pathway (AID 743223); details: VDR-UAS-bla HEK293T, beta-lactamase FRET ratio, 16 h; series mostly up to 61 µM; also: potency is read from the fitted curve at half-maximal effect
Records with an inconclusive call do not appear. Activity calls are given as the source filed them. Calls follow the shape of the dose curve; as a rule, active = well fitted inhibition curve with a large enough effect in the signal ratio in the repeat runs (not every such curve was filed as active); inconclusive = weak or mixed curves, or effect the other way; inactive = no such curve, though single readings can be large or run the other way; the % refers to the signal ratio.
ASSAY METRIC: Potency

Example results:
1) c1ccc(-c2ccc(C(c3ccccc3)n3ccnc3)cc2)cc1 (stereo unspecified) | inactive
2) O=[N+]([O-])c1ccc(O)c2ncccc12 | 9.52 µM (active)
3) CC(=O)[C@]1(O)Cc2c(O)c3c(c(O)c2[C@@H](O[C@H]2C[C@H](N)[C@H](O)[C@H](C)O2)C1)C(=O)c1ccccc1C3=O | 1.9 µM (active)
4) SC1CCCCC1 | inactive
5) O=C(CCCCCCCCc1cccnc1)N1CCC(C=C(c2ccccc2)c2ccccc2)CC1 | inactive

Now look at this one.
[ask] Please give the measured Potency for this compound: "c1ccc2cc3c4ccccc4c4ccccc4c3cc2c1"
[reply] inactive

###

test: qHTS RealTime-Glo MT Cell Viability Assay in HEK293 cells - 32 hour (AID 1224868); conditions: RealTime-Glo luminescence; series mostly up to 76.8 µM; also: top concentration of the series differs between compounds; % is scaled to controls: 0 for no effect and ±100 for the full control effect; nearly all actives have a fitted effect of over 50% in size
Results filed as inconclusive are left out. Calls of active or inactive are those of the source. Calls follow the shape of the dose curve; as a rule, active = well fitted cell-killing curve with a large enough effect in the repeat runs; inconclusive = weak or mixed curves, or effect the other way; inactive = flat fitted curve, though single readings scatter.
ASSAY METRIC: activity change, negative = cytotoxic

Example results:
1. CCCCCCCCCCCCS(=O)(=O)Cl | 18.8% [at 15.8 µM] (inactive)
2. O=C(O)C[C@H](O)C[C@H](O)/C=C/c1c(C2CC2)nc2ccccc2c1-c1ccc(F)cc1 | -6.08% [at 15.8 µM] (inactive)
3. C=CC(=O)OCCOC1C2CCC1C1CC=CC12 (stereo not given) | 0.499% [at 15.8 µM] (inactive)
4. COc1cc2ncnc(Nc3cccc(Cl)c3)c2cc1OC | 0.667% [at 15.8 µM] (inactive)

Now look at this one.
[ask] Please give the measured activity change, negative = cytotoxic for this molecule: "COc1cc(C(C)C)ccc1C"
[reply] 4.56% [at 15.8 µM] (inactive)

###

Assay: qHTS assay to test for compound auto fluorescence at 460 nm (blue) in HEK293 cell free culture (AID 720681)
Conditions: cell-free medium, autofluorescence 405/460 nm (blue); series mostly up to 46 µM
Description: U.S. Tox21 Program National Center for Advancing Translational Sciences [NCATS] NIH Chemical Genomics Center [NCGC] U.S. Environmental Protection Agency [EPA] National Institutes of Environmental Health Sciences [NIEHS] National Toxicology Program [NTP] U.S. Food and Drug Administration [FDA] Tox21 Assay Overview: Compound auto fluorescence often interferes with screening of the compound library against various biological targets and signaling pathways. […] This assay includes the blue fluorescence data. […]
The source made the active and inactive calls. The call rests on the fitted dose curve; in most records, active means well fitted curve in the direction sought with a large enough effect in the repeat runs; inconclusive means weak or mixed curves; inactive means flat fitted curve, though single readings scatter.
In this exercise, the only acceptable responses are class 1 (active), class 0 (inactive)

1. O=C(O)CCCC/C=C(\c1ccccc1)c1cccnc1 | class 0

[ask] What outcome does the record of this test show for "Nc1nc(/C(=C/CC(=O)O)C(=O)N[C@@H]2C(=O)N3C(C(=O)O)=CCS[C@H]23)cs1" ?
[reply] class 0

[ask] What outcome does the record of this test show for "COc1cc(NS(C)(=O)=O)ccc1Nc1c2ccccc2nc2ccccc12" ?
[reply] class 1

[ask] What outcome does the record of this test show for "O=c1[nH]c(=O)n([C@H]2C[C@H](O)[C@@H](CO)O2)cc1/C=C/Br" ?
[reply] class 0

[ask] What outcome does the record of this test show for "CCCCCCOC(=O)c1cccnc1" ?
[reply] class 0

[ask] What outcome does the record of this test show for CC[N+](CC)(CC)CCC(O)(c1ccccc1)C1CCCCC1 (centres undefined) ?
[reply] class 0

[ask] What outcome does the record of this test show for "CO[C@H]1C[C@H](O[C@H]2[C@H](C)[C@@H](O[C@@H]3O[C@H](C)C[C@H](N(C)C)[C@H]3O)[C@@H](C)C[C@]3(CO3)C(=O)[C@H](C)[C@@H](O)[C@@H](C)[C@@H](C)OC(=O)[C@@H]2C)O[C@@H](C)[C@@H]1O" ?
[reply] class 0

[ask] What outcome does the record of this test show for "CCN(CC)CCn1c(=O)c(Cc2ccc(OC)cc2)nc2ccccc21" ?
[reply] class 0

[ask] What outcome does the record of this test show for "CCCCC/C=C\C=C\C(=O)OCC" ?
[reply] class 0

###

assay: qHTS assay to identify small molecule antagonists of the retinoic acid receptor (RAR) signaling pathway (AID 1159552; also: nearly all actives have a fitted effect of over 50% in size); conditions: C3RL4 RARE luciferase reporter, retinol-stimulated, 6 h; series mostly up to 92.4 µM
Inconclusive results are not listed. The source made the active and inactive calls. The call rests on the fitted dose curve; in most records, active means well fitted inhibition curve with a large enough effect in the repeat runs; inconclusive means weak or mixed curves, or effect the other way; inactive means no such curve, though single readings can be large or run the other way.
In this exercise, the only acceptable responses are active, inactive

1. C1=CCCC1 | inactive
2. O=C1c2ccccc2C(=O)c2c(Cl)cccc21 | inactive
3. CCCCCCCCCCCC(=O)Cl | inactive
4. CC(C=O)c1ccccc1 (stereo not drawn) | inactive
5. CCOc1nc(F)cc2nc(S(=O)(=O)Nc3c(Cl)cccc3C(=O)OC)nn12 | inactive

[ask] What outcome does the record of this test show for "COc1cc([C@@H]2c3cc4c(cc3[C@@H](O[C@@H]3O[C@@H]5CO[C@@H](C)O[C@H]5[C@H](O)[C@H]3O)[C@H]3COC(=O)[C@H]23)OCO4)cc(OC)c1O" ?
[reply] active

[ask] What outcome does the record of this test show for "O=C1OC2(c3ccccc31)c1ccc(O)c(Br)c1Oc1c2ccc(O)c1Br" ?
[reply] inactive

[ask] What outcome does the record of this test show for "CC(C)C(=O)C(C)C" ?
[reply] inactive

[ask] What outcome does the record of this test show for "COc1cc(/C=C/C(=O)CC(=O)/C=C/c2ccc(O)c(OC)c2)ccc1O" ?
[reply] inactive

[ask] What outcome does the record of this test show for "O=C(CCCCCCCCc1cccnc1)N1CCC(C=C(c2ccccc2)c2ccccc2)CC1" ?
[reply] inactive

[ask] What outcome does the record of this test show for "COCCC(=O)OC" ?
[reply] inactive

[ask] What outcome does the record of this test show for "CC1(C)[C@H]2CC[C@]1(C)C(=O)C2" ?
[reply] inactive

[ask] What outcome does the record of this test show for "O=[N+]([O-])c1ccc(O)c2ncccc12" ?
[reply] inactive

###

assay: A CellTox Green Cytotoxicity Assay to monitor cytotoxicity in HEK293 cells - 40 hour (AID 1224871); settings: CellTox Green fluorescence; series mostly up to 76.8 µM; also: % is scaled to controls: 0 for no effect and ±100 for the full control effect; nearly all actives have a fitted effect of over 45% in size
Inconclusive results are not listed. Calls of active or inactive are those of the source. Calls follow the shape of the dose curve; as a rule, active = well fitted activation curve with a large enough effect in the repeat runs; inconclusive = weak or mixed curves; inactive = flat fitted curve, though single readings scatter.
ASSAY METRIC: cytotoxicity increase

Example results:
1. CCCCCCCCCCCCS(=O)(=O)Cl | -2.77% [at 15.8 µM] (inactive)
2. COc1cc2ncnc(Nc3cccc(Cl)c3)c2cc1OC | -0.731% [at 15.8 µM] (inactive)
3. O=C(O)C[C@H](O)C[C@H](O)/C=C/c1c(C2CC2)nc2ccccc2c1-c1ccc(F)cc1 | 1.42% [at 15.8 µM] (inactive)

[ask] Please give the measured cytotoxicity increase for this compound: "COc1cc(C(C)C)ccc1C"
[reply] -5.42% [at 15.8 µM] (inactive)

[ask] Please give the measured cytotoxicity increase for this compound: "C=C[Si](C)(C)Cl"
[reply] -9.04% [at 6.97 µM] (inactive)

[ask] Please give the measured cytotoxicity increase for this compound: C=CC(=O)OCCOC1C2CCC1C1CC=CC12 (configuration not stated)
[reply] -0.257% [at 15.8 µM] (inactive)

[ask] Please give the measured cytotoxicity increase for this compound: "CCCCNc1ccc(NCCCC)c2c1C(=O)c1ccccc1C2=O"
[reply] -1.5% [at 15.8 µM] (inactive)

###

assay: qHTS assay to identify small molecule agonists of the hypoxia (HIF-1) signaling pathway (AID 1224846); settings: HRE-bla ME-180 cells, beta-lactamase ratio, 17 h; series mostly up to 76.8 µM; also: % is scaled to controls: 0 for no effect and ±100 for the full control effect
Inconclusive results are not listed. Activity calls are given as the source filed them. Calls come from the whole dose curve; as a rule, active = well fitted activation curve with a large enough effect in the signal ratio in the repeat runs (not every such curve was filed as active); inconclusive = weak or mixed curves; inactive = flat fitted curve, though single readings scatter; the % refers to the signal ratio.
ASSAY METRIC: activation

Example results:
1) CCOC=C(C(=O)OCC)C(=O)OCC | inactive
2) Nc1ccc(Cl)c([N+](=O)[O-])c1 | inactive
3) CCC(=O)OC/C=C(\C)CCC=C(C)C | inactive
4) CCCCCCCCCCCCS(=O)(=O)Cl | 1.7% [at 15.8 µM] (inactive)
5) C/C(=N\[Si](C)(C)C)O[Si](C)(C)C | inactive

[ask] Please give the measured activation for this molecule: "CC1=CC[C@@H](C(C)(C)O)CC1"
[reply] inactive

[ask] Please give the measured activation for this molecule: "CCCCCCCCCCCC(=O)Cl"
[reply] inactive

[ask] Please give the measured activation for this molecule: "Nc1cc([N+](=O)[O-])cc(Cl)c1O"
[reply] inactive

[ask] Please give the measured activation for this molecule: "O=C1OC(=O)c2cc(-c3ccc4c(c3)C(=O)OC4=O)ccc21"
[reply] inactive

[ask] Please give the measured activation for this molecule: "Cc1ccc2sc3cccc(C)c3c2c1"
[reply] inactive

[ask] Please give the measured activation for this molecule: "C[C@H]1O[C@@H](O[C@H]2CC[C@@]3(C)[C@H](CC[C@@H]4[C@@H]3C[C@@H](O)[C@]3(C)[C@@H](C5=CC(=O)OC5)CC[C@]43O)C2)C[C@H](O)[C@@H]1O[C@H]1C[C@H](O)[C@H](O[C@H]2C[C@H](O)[C@H](O[C@@H]3O[C@H](CO)[C@@H](O)[C@H](O)[C@H]3O)[C@@H](C)O2)[C@@H](C)O1"
[reply] inactive
